Test system: KRas-mediated phosphorylation of ERK in H460 cells
test name: Inhibition of KRas-mediated phosphorylation of ERK (Cisbio HTRF pERK), H460 cells
Format: cell-based
condition notes: Homo sapiens, NCI-H460, HTRF pERK
Task for the reader: assign each of the following molecules its reported IC50.
Expressed in nM, but write only the number.

Provide IC50, recorded with KRas-mediated phosphorylation of ERK in H460 cells, of CCc1c(F)ccc2cc(O)cc(-c3ncc4c(N5CCC[C@@](C)(O)C5)nc(OC[C@@]56CCCN5[C@H](COC(=O)NC)CC6)nc4c3F)c12 [Example 706]
39

Provide IC50, recorded with KRas-mediated phosphorylation of ERK in H460 cells, of CCc1c(F)ccc2cc3[nH]ncc3c(-c3ncc4c(N5CCCC6(CNS(=O)(=O)N6)C5)nc(OC[C@@]56CCCN5C[C@H](F)C6)nc4c3F)c12 (stereo partly shown) [Example 872]
318

Provide IC50, recorded with KRas-mediated phosphorylation of ERK in H460 cells, of CCc1c(F)ccc2cc(O)cc(-c3ncc4c(N5CC6CCC(COC(=O)N(C)C)(C6)C5)nc(OC[C@@]56CCCN5C[C@H](F)C6)nc4c3F)c12 (stereo partly shown) [Example 892]
382

Provide IC50, recorded with KRas-mediated phosphorylation of ERK in H460 cells, of CCc1c(F)ccc2cc(O)cc(-c3ncc4c(N5C[C@H]6CC[C@@H](C5)[C@H]6O)nc(OC[C@@]56CCCN5C[C@H](F)C6)nc4c3F)c12 [Example 848]
275

Provide IC50, recorded with KRas-mediated phosphorylation of ERK in H460 cells, of CCc1c(F)ccc2cc(O)cc(-c3ncc4c(N5C[C@@H]6C[C@H](C5)[C@H](O)C6)nc(OC[C@@]56CCCN5C/C(=C\F)C6)nc4c3F)c12 [Example 942]
1

Provide IC50, recorded with KRas-mediated phosphorylation of ERK in H460 cells, of CCc1c(F)ccc2cc(O)cc(-c3ncc4c(N5CCC[C@@](C)(O)C5)nc(OC[C@@]56CCCN5[C@H](COC(C)C)CC6)nc4c3F)c12 [Example 895]
42

Provide IC50, recorded with KRas-mediated phosphorylation of ERK in H460 cells, of CCc1c(F)ccc2cc(O)cc(-c3ncc4c(N5CCC[C@@](C)(O)C5)nc(OC[C@@]56CCCN5[C@H](COCC5CCCC5)CC6)nc4c3F)c12 [Example 904]
53
